Experiment description: Components of the Cytosolic LPS Sensing Pathway: Gene Identification via Genome-wide siRNA Screen;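 further: robust z of the log signal after scaling to non-targeting control siRNA wells of the plate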
Study conditions: RAW264.7 macrophages, IL-1a HTRF, actives lie on both sides, screened at 100 nM (by protocol), cells primed 5 h with Pam3CSK4 first
Screen size: about 53,000 sequences; about 3,700 (7%) were called active.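 How the source made its calls: active means gene knockdowns whose robust z-score for IL-1 alpha signal is at least 2 or at most -2, so actives lie on both sides; inactive means the rest.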 Only a selection was taken, and actives are over-represented in it overall.
Outcomes: active, inactive

* GGAUUGCCCUGUUGUGGUGTT against Snx17 | inactive
* GGAAGGUUUCGCUUUGAAUTT against Tarm1 | inactive
* CCGUUUUCGCUUUGAGAAATT against Smarcad1 | active
* GCUAGCCAGUGCAUUCACATT against Srp68 | active
* CCUUAAUCCAAACAAGUCUTT against Ncl | inactive
* GCAUCAACACCUGUUCUAUTT against Olfr376 | inactive
* GCGUGCUGGUUUUCUGAUUTT against Sbno2 | inactive
* CCUAGGUGUCACCAUGAACTT against Ssx9 | active
* GGUCUUUGAGUUAAACCAUTT against Cdc7 | inactive
* GCUUCAAGCCAUCCGAAUATT against Cfap36 | inactive
* GCGUAGGUCAUCCUUGUAATT against Samd4 | active
* GGCCUUCAAGUGCAUGAUGTT against Yaf2 | inactive
* GGAAGACGUAUUUGUACACTT against Ybx1 | inactive
* GCUGGAUCCAUCUAAUUGCTT against Klhl12 | inactive
* GCCUCCUACUGGUUCCAAATT against Commd7 | active
* GAGGUUUGGCAGAAGUGCATT against Npff | inactive
* GGUGGUUCUCAGCUGUGUATT against Arhgef18 | inactive
* GGAUCUUUUCAGGUUCUAATT against Olfr659 | inactive
* GCCAAGCCAUCUCAUUAAATT against Wdr18 | inactive
* CCGAAAUGUGUGUUUUAAATT against Vapb | inactive
* GUUACCUCUGUGUUGUACUTT against Olfr60 | inactive
* GGCUGAAGCGCAAGAGGAATT against Wdr46 | active
* GGAUGGGAUGAAAAUUGAATT against Papolg | inactive
* GCUUAUAUGGCCUGAGAGATT against Tmem199 | inactive
* GCAAUUCAGCUUAUAAGCATT against Mterf2 | active
* GGAUGAAGAUGGAGAUCUUTT against Tfg | active
* GCUCAAAUUGAGUCCUUAUTT against Ccdc122 | inactive
* GGACAAUUGAAUACCUAGATT against Hadha | inactive
* GGGAUAAAAACCAUGGUUUTT against Pramel27 | inactive
* GGAAAAGGAAGAACUGAUUTT against Sptlc1 | inactive
* GCUGAGAGUGAACCGAUGUTT against Dyrk4 | inactive
* GGAAUUCUUCAUCCAUGGATT against Olfr570 | active
* GGGCUGCUGCUUAGCAAUCTT against Egln3 | inactive
* GGCAUGAUCAGCACAUCACTT against Rpap1 | inactive
* GGAGAGUAACAAUUAUGAATT against Pcdha9 | inactive
* GGUGGUCCAGACCAAGUACTT against Pfdn5 | inactive
* GGUUUGGUGUCAGAUGUCATT against Olfr1182 | active
* GGAUGUGGAAUCAUGCUAUTT against Tnpo3 | active
* CCUAGUAAUGUCCAUUGUGTT against Endod1 | inactive
* GCCUAAGAUCUGGACCUAATT against Timm44 | inactive
* GGUCUGGAUGCUUUAGAAUTT against Fam114a1 | inactive

----------
Experiment description: Components of the Cytosolic LPS Sensing Pathway: Gene Identification via Genome-wide siRNA Screen;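 further: robust z of the log signal after scaling to non-targeting control siRNA wells of the plate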
Study conditions: RAW264.7 macrophages, IL-1a HTRF, actives lie on both sides, screened at 100 nM (by protocol), cells primed 5 h with Pam3CSK4 first
Among all 53,000 sequences or so, about 3,700 (7%) were called active.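 Rule for the calls: active = gene knockdowns whose robust z-score for IL-1 alpha signal is at least 2 or at most -2, so actives lie on both sides; inactive = the rest.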 Only a selection was taken, and actives are over-represented in it overall.
Outcomes: active, inactive

- CCAAUCUUCUCCUCAAGACTT against Olfr101: inactive
- GGCCUUAGAACAAGGAAUATT against Cdk7: inactive
- GGAGAAGCAUGGCUAUAACTT against Rcor2: inactive
- GGAAGUGAUUCUGCUAUGUTT against Cenpn: inactive
- GGCAGUUUCUGUGCUAUACTT against Olfr984: active
- GGGUUUAGAGACCCUGAGATT against Klc2: active
- GGAGAACAGUUUCAAGAUGTT against Rnf152: inactive
- GGGCAUGAAUGGUUACUUATT against Mllt6: inactive
- GGUGAAGAGCUUCUUGAUCTT against Zfyve27: inactive
- GCCCAAAAAGGAAUUAAUUTT against Pak3: inactive
- GGAUAUUCAGCACUGGGAATT against Rrm2: inactive
- GCAGCCAAAUUCAUCCUCATT against Tspan33: inactive
- GGUUCUGGACUUCAUCCUCTT against Ocstamp: inactive
- CUCCUUGUCUACCUGAAUATT against Vmn1r213: inactive
- GGCCUUGAAGGAGAUGCUATT against Rell2: inactive
- GGAACCACACAUGUGUUAATT against Grik2: inactive
- CGACAUGUCAAAACUCACGTT against Zfp791: inactive
- GGAAGGUGUUCGUAGAGAATT against Mad2l1: inactive
- GGAAGGAUUCUGGAAACAGTT against 2210409E12Rik: active
- GCUUGGGUAAUAGAAAUCATT against Btnl1: inactive
- GGCCUCAGUUGGACUUGAATT against Scn10a: inactive
- GGCCAACACUAACACAGACTT against Tmem268: inactive
- CCGGAGUGACCAUAUUCGUTT against Fgr: inactive
- GGACAGAUGAUGAAGUUGUTT against Hsp90b1: active
- GGCUGUGAAUCUGAAGAGCTT against Chrna6: inactive
- GGGCAACCUGUCACAUUAUTT against Spam1: inactive
- GCUAAUAGCCUGCCUAAGGTT against Plekhj1: inactive
- GCAGAUCGUGCGGAUCUUGTT against Bcdin3d: active
- GCUGAACUGUCUCAGCUCATT against Tmem81: active
- CCACAGUACGCUGAAAUCCTT against Morf4l1: active
- CCAUUCGAGAUGAGAAGAATT against Gcc1: inactive
- GGGUUGGAACAAGGUAAUUTT against Usp16: inactive
- GGAAGGCCAUUUCAACUAATT against Olfr1367: inactive
- GGGAAGAGUUGGAUCGAUCTT against Shkbp1: inactive
- AUAUCAGACUGACAUAGCATT against Obox5: active
- CUUGUCAAGUGAUGAAAUGTT against Xlr: inactive
- GGUGUUGAGAAGAAAAAUATT against Spz1: inactive
- GGAUAGGUUUCUGUAUUUATT against Znrf1: inactive
- CGAAAAUACGUCAAAGCUCTT against Abca8b: inactive
- GGUAUUGAAAUGGAAAAGGTT against D6Wsu163e: inactive
- GGACAGAUAGGAUUAGAGATT against Igfbp5: inactive

----------
Experiment description: Components of the Cytosolic LPS Sensing Pathway: Gene Identification via Genome-wide siRNA Screen;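 further: robust z of the log signal after scaling to non-targeting control siRNA wells of the plate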
Study conditions: RAW264.7 macrophages, IL-1a HTRF, actives lie on both sides, screened at 100 nM (by protocol), cells primed 5 h with Pam3CSK4 first
The whole screen tested about 53,000 sequences, of which about 3,700 (7%) were called active. Only a selection was taken, and actives are over-represented in it overall.
Readout label: z-score

- GUGACUCCCAAACUCCUGATT against Olfr1180: -1.81
- GGAUAAAUUUCAAGAUGUGTT against Naip5: -0.552
- GCGUGAACGGAUAAAAAAUTT against Figla: 1.09
- CGCAUCAUAAUGAUUGUGATT against Matn2: -0.269

----------
Experiment description: Components of the Cytosolic LPS Sensing Pathway: Gene Identification via Genome-wide siRNA Screen;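 further: robust z of the log signal after scaling to non-targeting control siRNA wells of the plate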
Study conditions: RAW264.7 macrophages, IL-1a HTRF, actives lie on both sides, screened at 100 nM (by protocol), cells primed 5 h with Pam3CSK4 first
Among all 53,000 sequences or so, about 3,700 (7%) were called active. The entries come from a sample that favours actives as a whole.
Readout label: z-score

• CGAUACUGUGCAAAGAAUCTT against Nepro = 0.231 (inactive)
• GGGAAAGCACUCCAACACATT against Frem1 = -2.12 (active)
• GGGACGUGCAAUUGUCUGATT against Mfsd6 = 0.0857 (inactive)
• GGAAAAUGGCAGAAAUGAATT against Vps26a = -1.97 (inactive)
• GGACAUCGUGCUCUAUCUCTT against Nrarp = -1.07 (inactive)
• GCUUCGACAUUGUUAGUUATT against Ammecr1 = 0.322 (inactive)
• GUACAAGUGUGGACCCUUATT against Chchd2 = 0.409 (inactive)
• GCAGUCUCACCUGAACAGATT against Eppin = 0.43 (inactive)
• CGACCAGAUGAACUGGUGUTT against Smg9 = 0.929 (inactive)
• CGCCGCACAGUUAAUGCUUTT against Mettl17 = 0.973 (inactive)
• CCAUAUGGCUUGUGGCAGATT against Scn1b = -0.245 (inactive)
• GGACCACCGUGAUCAACAUTT against Ifitm2 = 0.215 (inactive)
• GGAGAUCCAGGCAAUUUUUTT against Pink1 = 0.779 (inactive)
• GGUGCAUUUAUGUAUUUCCTT against Olfr916 = -1.76 (inactive)
• GGAGACUUAUAACAUGUUUTT against Habp2 = 2.19 (active)
• CCUUUUACACUCUAGUAUGTT against Ptger4 = -0.349 (inactive)
• GGCAUAAACCUUCUUGCUCTT against Ccl22 = -0.221 (inactive)
• GGCUCCUAGUGAUUAAAAGTT against 4930578I06Rik = 0.0788 (inactive)
• CCUUAUGUCCCUAAGGCUATT against Mbd3 = -0.109 (inactive)
• CCGAUGACAAUCGGCCCUUTT against Gja8 = 0.74 (inactive)
• GCCGCUAACUAAAGUCAAATT against Aloxe3 = 1.15 (inactive)
• GUUAACCCUGAGCCUAAACTT against Spata3 = 0.356 (inactive)
• GGCAUCAAGUCCAUUUUUGTT against Slc12a4 = 0.108 (inactive)
• GGACAAGAAGCCACUGACATT against Arrb1 = 2.2 (active)
• GGUAGUGGCUUGAACAGGUTT against Vmn1r201 = 0.115 (inactive)
• CCUCAUUUCAACCAUUCACTT against Lyzl6 = -2.36 (active)
• GGCUGAUGCAGACAGUUUCTT against Brap = -0.655 (inactive)
• GGUUUUGUCCAGAAGAAUATT against Kl = -0.574 (inactive)
• GAUGUCCUUCACCUUUGCCTT against Atp5d = -1.9 (inactive)
• GCAAAGCCUUACCAUGUAATT against Ighg = 1.33 (inactive)
• GGAAAUUGUUGUUUCCCGUTT against Sf3b3 = -1.45 (inactive)
• GGGCUUUGGACAUCUCCUATT against Serpina3c = -1.98 (inactive)
• GGGUUUCAACGGCUGUGACTT against Mef2d = -2.73 (active)
• GGGACCGUGAAGAAAAUUUTT against Tmed11 = -0.926 (inactive)
